Please go through the items and note down their IC50.
- study.system: T1, human EphA4 (binding to human Ephrin A5) (Homo sapiens, UniProt P54764)
- T1 construct: made in house; not restated for the human SEAP-His protein
- T1 sequence (P54764 20-547): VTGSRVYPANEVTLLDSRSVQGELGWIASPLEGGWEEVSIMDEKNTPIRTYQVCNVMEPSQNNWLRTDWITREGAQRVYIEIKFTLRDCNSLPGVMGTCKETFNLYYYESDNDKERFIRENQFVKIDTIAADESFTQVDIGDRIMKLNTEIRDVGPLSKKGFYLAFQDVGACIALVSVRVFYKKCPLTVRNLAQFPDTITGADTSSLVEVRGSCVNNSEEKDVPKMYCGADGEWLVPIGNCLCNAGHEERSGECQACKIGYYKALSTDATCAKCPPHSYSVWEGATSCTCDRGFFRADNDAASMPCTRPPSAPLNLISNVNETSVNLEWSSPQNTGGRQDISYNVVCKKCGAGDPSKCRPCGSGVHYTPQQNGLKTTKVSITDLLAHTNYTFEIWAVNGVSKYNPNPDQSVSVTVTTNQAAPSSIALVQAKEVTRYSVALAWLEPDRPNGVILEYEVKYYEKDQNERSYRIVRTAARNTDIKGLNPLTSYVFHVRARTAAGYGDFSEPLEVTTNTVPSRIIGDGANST
- assay.overview: Human EphA4-human ligand binding inhibition ELISA of humanized antibodies (biotinylated Ephrin A5-Fc)
- stated.conditions: biotinylated human Ephrin A5-Fc 0.7 nM
The answer consists of two parts: a number and, after it, its unit.

Prompt: Requested field: IC50. Item: 145 (antibody, V domains shown, synthetic humanized antibody heavy chain variable region sequence; synthetic humanized antibody light chain variable region sequence) VH: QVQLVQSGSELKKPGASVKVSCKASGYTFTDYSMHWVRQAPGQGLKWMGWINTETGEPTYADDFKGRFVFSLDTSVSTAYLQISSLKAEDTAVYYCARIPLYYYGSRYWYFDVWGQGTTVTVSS VL: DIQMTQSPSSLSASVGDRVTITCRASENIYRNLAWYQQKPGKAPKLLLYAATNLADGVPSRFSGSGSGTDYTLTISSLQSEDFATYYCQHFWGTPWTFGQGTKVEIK
Completion: 3.7 nM

Prompt: Requested field: IC50. Item: 89 (antibody, V domains shown, constant regions without entry; synthetic humanized antibody light chain variable region sequence; synthetic humanized antibody heavy chain variable region sequence) VL: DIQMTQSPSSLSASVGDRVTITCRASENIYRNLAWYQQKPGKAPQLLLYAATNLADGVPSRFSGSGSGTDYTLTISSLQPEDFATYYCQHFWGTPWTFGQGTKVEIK VH: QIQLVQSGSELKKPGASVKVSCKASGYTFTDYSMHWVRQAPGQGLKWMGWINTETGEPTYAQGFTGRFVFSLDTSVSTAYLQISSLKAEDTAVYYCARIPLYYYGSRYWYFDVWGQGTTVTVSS
Completion: 4.3 nM
